system.name: APC (303–739) (Homo sapiens)
Sequence (P25054 303-739): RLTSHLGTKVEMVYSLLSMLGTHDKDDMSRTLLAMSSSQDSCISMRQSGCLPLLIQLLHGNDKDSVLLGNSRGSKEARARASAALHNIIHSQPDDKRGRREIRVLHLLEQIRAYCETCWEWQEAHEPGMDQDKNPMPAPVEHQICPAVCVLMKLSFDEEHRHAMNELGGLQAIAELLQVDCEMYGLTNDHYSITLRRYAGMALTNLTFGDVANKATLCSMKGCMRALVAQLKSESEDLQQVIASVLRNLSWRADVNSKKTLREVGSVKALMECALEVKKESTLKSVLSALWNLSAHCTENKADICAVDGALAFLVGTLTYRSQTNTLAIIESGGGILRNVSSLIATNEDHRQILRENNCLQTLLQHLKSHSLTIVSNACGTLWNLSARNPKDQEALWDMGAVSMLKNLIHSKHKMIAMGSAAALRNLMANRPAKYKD
procedure.details: FP competitive assay using tracer 7
Assay type: binding
run.parameters: mean of 3 repeats; Table 3 source data; read-out: IC50(μM) mean
Where a SMILES comes first, the peptide text is derived from it. The star is where a group is joined. Adamantane1carbonyl = O=C(C12CC3CC(CC(C3)C1)C2)*; Picolinoyl = O=C(c1ccccn1)*; Acryloyl = C=CC(=O)*; X2 = O=C(c1cncs1)*
# IC50 listing for each entry below
The reply should contain only the number, in µM.

Example entries and their recorded answers appear below.
What does the record list as IC50 for CC(C)C[C@H](NC(=O)[C@H](CO)NC(=O)[C@H](CCC(=O)O)NC(=O)CNC(=O)[C@H](C)NC(=O)c1ccccn1)C(=O)N[C@@H](Cc1ccc(O)cc1)C(=O)N[C@@H](CCC(=O)O)C(N)=O [MAI-512] (Picolinoyl-AGESLYE-NH2) ?
0.976

Entry CC(C)C[C@H](NC(=O)[C@H](CO)NC(=O)[C@H](CCC(=O)O)NC(=O)CNC(=O)[C@H](C)NC(=O)C12CC3CC(CC(C3)C1)C2)C(=O)N[C@@H](Cc1ccc(O)cc1)C(=O)N[C@@H](CCC(=O)O)C(N)=O [MAI-505] (Adamantane1carbonyl-AGESLYE-NH2) please
1.62

Queued: C=CC(=O)N[C@@H](C)C(=O)NCC(=O)N[C@@H](CCC(=O)O)C(=O)N[C@@H](CO)C(=O)N[C@@H](CC(C)C)C(=O)N[C@@H](Cc1ccc(O)cc1)C(=O)N[C@@H](CCC(=O)O)C(N)=O [MAI-501] (Acryloyl-AGESLYE-NH2)
23.7

// next item, IC50 requested
IC50 lookup needed for CC(C)C[C@H](NC(=O)[C@H](CO)NC(=O)[C@H](CCC(=O)O)NC(=O)CNC(=O)[C@H](C)NC(=O)c1cncs1)C(=O)N[C@@H](Cc1ccc(O)cc1)C(=O)N[C@@H](CCC(=O)O)C(N)=O [MAI-508] (X2-AGESLYE-NH2) , thanks.
0.219
